# Test system: SF-295 CNS
# ASSAY_INFO: NCI-60 one-dose screen, 48 h
# RECORDED_CONDITIONS: 10 µM unless noted
Compounds without any hit were thinned out: in the full panel of roughly 83,000, 20% have a hit. Activity calls are given as the source filed them. The calls were made as follows: active = growth percent below 10; inactive = the rest.
Pick one: TRUE = active, FALSE = inactive

>  <MOLECULE>
O=C(/C=C/c1ccccc1)c1cccc2ccccc12

>  <MEASUREMENT_TARGET>
SF-295 CNS

>  <CLASS_ASSIGNMENT>
FALSE

$$$$
>  <MOLECULE>
COc1ccc(/C=C2\c3cc(OC)c(OC)c(OC)c3CC[C@@H]2O)cc1F

>  <MEASUREMENT_TARGET>
SF-295 CNS

>  <CLASS_ASSIGNMENT>
FALSE

$$$$
>  <MOLECULE>
CNCC[C@H](Oc1cccc2ccccc12)c1cccs1

>  <MEASUREMENT_TARGET>
SF-295 CNS

>  <CLASS_ASSIGNMENT>
FALSE

$$$$
>  <MOLECULE>
CCCCCCCCn1ccc2cc(NC(=O)CN=[N+]=[N-])ccc21

>  <MEASUREMENT_TARGET>
SF-295 CNS

>  <CLASS_ASSIGNMENT>
FALSE

$$$$

Field: outcome | Entry: `CN(C)CCCn1c2c(c3cnccc3c1=O)C(=O)c1ccccc1-2` TRUE

Which outcome did this test record for the molecule CCn1cc(C(=O)O)c(=O)c2cc(F)c(N3CCN(CC(=O)Nc4ccccc4)C(C)C3)c(F)c21 (stereo unspecified) ? FALSE

How did this test come out for C1CCC(N2CN3c4nonc4N4CN(C5CCCCC5)CN5c6nonc6N(C2)C3C45)CC1 (stereo unspecified) ? FALSE

// param item: `Nc1cc(Br)cc2c1[nH]c(=O)c1ccccc12` ; yields the recorded call FALSE

Name the outcome recorded for `Oc1ccc(-c2nc3ccc4[nH]ncc4c3c3c2CCCC3)c(F)c1` in the assay. FALSE

Recorded call for `COc1cc(-c2ccc(-c3ccc(C(=N)N)cc3)s2)cc(OC)c1OC` ? FALSE

Hi, do you know how `CS(=O)(=O)Nc1cc(-c2ccc3ncnc(Nc4ccc5c(cnn5Cc5ccncc5)c4)c3c2)cnc1Cl` came out in this test? FALSE

Check the results log: what was the call for `O=c1ccc2ccc(OCCN3CCCCC3)cc2o1` ? FALSE

Which outcome was assigned to `C=C1C(=O)O[C@H]2[C@H]1CC/C(COC(=O)NCc1ccc(Cn3c(=O)sn(-c4ccc(I)cc4)c3=O)cc1)=C\CC[C@@]1(C)O[C@@H]21` in this test? FALSE

For this molecule, state the assay outcome: `O=C1/C(=C/c2ccccn2)SC(=S)N1N1CCOCC1` FALSE

# outcome recorded in this test, key = C#Cc1cccc(NC(=O)C2CCCCN2C(=O)CCl)c1 (stereo unspecified) FALSE

Field: outcome | Entry: `CCCCCCCCCCCCCCCCCCOc1ccccc1CC(=O)NCC[N+](C)(C)C` FALSE

Record lookup: outcome of this test for `COc1cc(/C=C2\C(=O)N(CCCOc3cc(O)c4c(=O)cc(-c5ccccc5)oc4c3)c3ccccc32)cc(OC)c1O` ? FALSE

Can you look up the reported call for Cc1cc(C)c2c(c1)N(C)c1ncnc(-n3c(C)nc4cc(C)ccc43)c1CC2C (stereo unspecified) for me? TRUE

Give the logged outcome of this assay for the following molecule: `CC(=O)c1ccc(-n2cc(CN3CCN(c4cc5c(cc4F)c(=O)c(C(=O)O)cn5C4CC4)CC3)nn2)cc1` FALSE

GET /call?item= `Cc1ccc(-c2csc(NC(=O)CSc3nc(N)cc(N)n3)n2)cc1` returns the recorded outcome of this test. FALSE

Test call, this molecule: `CCOC(=O)c1nnn(Cc2cc(=O)oc3ccc(O)cc23)c1C` FALSE
